Where do these numbers come from? They come from paper PMC7057333.

tested_system: LSD1 (Homo sapiens)
Construct: made in house; host or cells: Escherichia coli Rosetta 2 (pET15b)
test_name: HRP-coupled fluorescence LSD1 demethylation activity and inhibition assay, substrate H3_1-21 K4(Me)
Type: biochemical
test_parameters: 100 μM; supplement sheet SMILES and Activity; read-out: Inhibition at 100 μM (%)
# reported inhibition at 100 µM; entries follow
readout: inhibition at 100 µM (%)

compound="C=CC[C@H](NC(=O)[C@H](CCCNC(=N)N)NC(=O)[C@@H](N)CC=C)C(=O)N[C@@H](CCSC)C(=O)N[C@@H](CCC(N)=O)C(=O)N[C@H](C(=O)N[C@@H](C)C(=O)N[C@@H](CCCNC(=N)N)C(=O)N[C@@H](CCCCN)C(=O)N[C@@H](CO)C(=O)N[C@H](C(N)=O)[C@@H](C)O)[C@@H](C)O [Peptide 18]" quantitative_readout=98
compound="CSCC[C@@H]1NC(=O)[C@@H](NC(=O)[C@H](CCCNC(=N)N)NC(=O)[C@H](C)N)CCC/C=C\\CCC[C@H](C(=O)N[C@@H](C)C(=O)N[C@@H](CCCNC(=N)N)C(=O)N[C@@H](CCCCN)C(=O)N[C@@H](CO)C(=O)N[C@H](C(N)=O)[C@@H](C)O)NC(=O)[C@H](CCC(N)=O)NC1=O [Peptide 25, ARG^penMQ*G^penARKST-NH2]" quantitative_readout=95
compound="C=CC[C@H](NC(=O)[C@H](CCC(N)=O)NC(=O)[C@H](CCSC)NC(=O)[C@H](CC=C)NC(=O)[C@H](CCCNC(=N)N)NC(=O)[C@H](C)N)C(=O)N[C@@H](C)C(=O)N[C@@H](CCCNC(=N)N)C(=O)N[C@@H](CCCCN)C(=O)N[C@@H](CO)C(=O)N[C@H](C(N)=O)[C@@H](C)O [Peptide 20, ARG^alyMQG^alyARKST-NH2]" quantitative_readout=95

###

tested_system: LSD1 (Homo sapiens, UniProt O60341)
Construct: made in house; host or cells: Escherichia coli Rosetta 2 (pET15b)
test_name: HRP-coupled fluorescence LSD1 demethylation activity and inhibition assay, substrate H3_1-21 K4(Me)
Format: biochemical
test_parameters: 100 μM; supplement sheet SMILES and Activity; read-out: Inhibition at 100 μM (%)
readout: inhibition at 100 µM (%)

compound="CSCC[C@@H]1NC(=O)[C@@H](NC(=O)[C@H](CCCNC(=N)N)NC(=O)[C@H](C)N)C/C=C\\C[C@@H](C(=O)N[C@@H](C)C(=O)N[C@@H](CCCNC(=N)N)C(=O)N[C@@H](CCCCN)C(=O)N[C@@H](CO)C(=O)N[C@H](C(N)=O)[C@@H](C)O)NC(=O)[C@H](CCC(N)=O)NC1=O [Peptide 21, ARG^alyMQG^alyARKST-NH2]" quantitative_readout=95
compound="CSCC[C@@H]1NC(=O)[C@@H](NC(=O)[C@H](CCCNC(=N)N)NC(=O)[C@H](C)N)CCC(=O)NCCCC[C@@H](C(=O)N[C@@H](C)C(=O)N[C@@H](CCCNC(=N)N)C(=O)N[C@@H](CCCCN)C(=O)N[C@@H](CO)C(=O)N[C@H](C(N)=O)[C@@H](C)O)NC(=O)[C@H](CCC(N)=O)NC1=O [Peptide 28]" quantitative_readout=98
compound="CSCC[C@@H]1NC(=O)[C@H](NC(=O)[C@H](CCCNC(=N)N)NC(=O)[C@H](C)N)CCC/C=C\\CCC[C@H](C(=O)N[C@@H](C)C(=O)N[C@@H](CCCNC(=N)N)C(=O)N[C@@H](CCCCN)C(=O)N[C@@H](CO)C(=O)N[C@H](C(N)=O)[C@@H](C)O)NC(=O)[C@H](CCC(N)=O)NC1=O (relative stereo) [Peptide 26, AR*G^penMQ*G^penARKST-NH2]" quantitative_readout=100

###

tested_system: LSD1 (Homo sapiens, UniProt O60341)
Construct: made in house; host or cells: Escherichia coli Rosetta 2 (pET15b)
test_name: HRP-coupled fluorescence LSD1 demethylation activity and inhibition assay, substrate H3_1-21 K4(Me)
Assay type: biochemical
test_parameters: 100 μM; supplement sheet SMILES and Activity; read-out: Inhibition at 100 μM (%)
Bridge positions count the residues as written; N and C are the ends. Square brackets hold non-standard residues; d marks the D form. Peptide text beside a SMILES is read from it. Cit = NC(=O)NCCC[C@H](N)C(=O)O
# reported inhibition at 100 µM; entries follow
readout: inhibition at 100 µM

compound="CSCC[C@@H]1NC(=O)[C@@H](NC(=O)[C@H](CCCNC(=N)N)NC(=O)[C@H](C)N)Cc2cn(nn2)CCCC[C@@H](C(=O)N[C@@H](C)C(=O)N[C@@H](CCCNC(=N)N)C(=O)N[C@@H](CCCCN)C(=O)N[C@@H](CO)C(=O)N[C@H](C(N)=O)[C@@H](C)O)NC(=O)[C@H](CCC(N)=O)NC1=O [Peptide 36, ARG^prgMQK^azdARKST-NH2]" readout="inhibition at 100 µM" result=70%
compound="CSCC[C@@H]1NC(=O)[C@@H](NC(=O)[C@H](CCCNC(N)=O)NC(=O)[C@H](C)N)CCC(=O)NCCCC[C@@H](C(=O)N[C@@H](C)C(=O)N[C@@H](CCCNC(=N)N)C(=O)N[C@@H](CCCCN)C(=O)N[C@@H](CO)C(=O)N[C@H](C(N)=O)[C@@H](C)O)NC(=O)[C@H](CCC(N)=O)NC1=O [Peptide 33] (H-A[Cit]EMQKARKST-NH2; lactam 3-6)" readout="inhibition at 100 µM" result=97%

###

tested_system: LSD1 (Homo sapiens, UniProt O60341)
Construct: made in house; host or cells: Escherichia coli Rosetta 2 (pET15b)
test_name: HRP-coupled fluorescence LSD1 demethylation activity and inhibition assay, substrate H3_1-21 K4(Me)
Format: biochemical
test_parameters: supplement sheet SMILES and Activity; read-out: IC50
Ends that are not written are not given here.
readout: IC50 (µM)

substance="PRTMQTARKST-NH2 [Peptide 11]" quantitative_readout=12.5

###

tested_system: LSD1 (Homo sapiens)
Construct: made in house; host or cells: Escherichia coli Rosetta 2 (pET15b)
test_name: HRP-coupled fluorescence LSD1 demethylation activity and inhibition assay, substrate H3_1-21 K4(Me)
Assay type: biochemical
test_parameters: read-out: % inhibition at 100 μM
Bridge positions count the residues as written; N and C are the ends. Square brackets hold non-standard residues; d marks the D form. Peptide text beside a SMILES is read from it. Cit = NC(=O)NCCC[C@H](N)C(=O)O
readout: inhibition at 100 µM (%)

compound="CSCC[C@@H]1NC(=O)[C@H](NC(=O)[C@H](CCCNC(=N)N)NC(=O)[C@H](C)N)CCC/C=C\\CCC[C@@H](C(=O)N[C@@H](C)C(=O)N[C@@H](CCCNC(=N)N)C(=O)N[C@@H](CCCCN)C(=O)N[C@@H](CO)C(=O)N[C@H](C(N)=O)[C@@H](C)O)NC(=O)[C@H](CCC(N)=O)NC1=O (relative stereo) [Peptide 24, AR*G^penMQG^penARKST-NH2]" tested_system="LSD1 (Homo sapiens)" unit_info=% limit_sign== quantitative_readout=95
compound="CSCC[C@@H]1NC(=O)[C@@H](NC(=O)[C@H](CCCNC(=N)N)NC(=O)[C@H](C)N)CCCCn2cc(nn2)C[C@@H](C(=O)N[C@@H](C)C(=O)N[C@@H](CCCNC(=N)N)C(=O)N[C@@H](CCCCN)C(=O)N[C@@H](CO)C(=O)N[C@H](C(N)=O)[C@@H](C)O)NC(=O)[C@H](CCC(N)=O)NC1=O [Peptide 35, ARK^azdMQG^prgARKST-NH2]" tested_system="LSD1 (Homo sapiens)" unit_info=% limit_sign=< quantitative_readout=30
compound="CSCC[C@@H]1NC(=O)[C@H](NC(=O)[C@H](CCCNC(=N)N)NC(=O)[C@H](C)N)CCCCNC(=O)CC[C@@H](C(=O)N[C@@H](C)C(=O)N[C@@H](CCCNC(=N)N)C(=O)N[C@@H](CCCCN)C(=O)N[C@@H](CO)C(=O)N[C@H](C(N)=O)[C@@H](C)O)NC(=O)[C@H](CCC(N)=O)NC1=O (relative stereo) [Peptide 31]" tested_system="LSD1 (Homo sapiens)" unit_info=% limit_sign== quantitative_readout=100
compound="CSCC[C@@H]1NC(=O)[C@H](NC(=O)[C@H](CCCNC(=N)N)NC(=O)[C@H](C)N)CCC(=O)NCCCC[C@@H](C(=O)N[C@@H](C)C(=O)N[C@@H](CCCNC(=N)N)C(=O)N[C@@H](CCCCN)C(=O)N[C@@H](CO)C(=O)N[C@H](C(N)=O)[C@@H](C)O)NC(=O)[C@H](CCC(N)=O)NC1=O (relative stereo) [Peptide 32]" tested_system="LSD1 (Homo sapiens)" unit_info=% limit_sign=< quantitative_readout=20
compound="CSCC[C@@H]1NC(=O)[C@@H](NC(=O)[C@H](CCCNC(=N)N)NC(=O)[C@H](C)N)CCC(=O)NCCCC[C@@H](C(=O)N[C@@H](C)C(=O)N[C@@H](CCCNC(N)=O)C(=O)N[C@@H](CCCCN)C(=O)N[C@@H](CO)C(=O)N[C@H](C(N)=O)[C@@H](C)O)NC(=O)[C@H](CCC(N)=O)NC1=O [Peptide 34] (H-AREMQKA[Cit]KST-NH2; lactam 3-6)" tested_system="LSD1 (Homo sapiens)" unit_info=% limit_sign== quantitative_readout=97
compound="CSCC[C@@H]1NC(=O)[C@@H](NC(=O)[C@H](CCCNC(=N)N)NC(=O)[C@H](C)N)CCCCNC(=O)CC[C@@H](C(=O)N[C@@H](C)C(=O)N[C@@H](CCCNC(=N)N)C(=O)N[C@@H](CCCCN)C(=O)N[C@@H](CO)C(=O)N[C@H](C(N)=O)[C@@H](C)O)NC(=O)[C@H](CCC(N)=O)NC1=O [Peptide 27]" tested_system="LSD1 (Homo sapiens)" unit_info=% limit_sign== quantitative_readout=65
